Would you kindly list inhibition for each of these molecules?
- assay-system: Hexose transporter 1 (Plasmodium falciparum) (UniProt O97467)
- protocol-text: ST_JUDE_LEISH: Cytotoxicity at 2uM final concentration against transgenic Leishmania Mexicana promastigotes LmPfHT that are glucose transport deficient and complemented with the Plasmodium falciparum hexose transporter. Activity is measured by DNA content using SYBR green in vitro
- Format: functional
Numbers only, in %.

Query block: Which inhibition value belongs to O=C(NCCCCCN1CCC(c2c[nH]c3ccccc23)CC1)c1ccc(-c2ccccc2)nc1 ?
Result block: 2.42

Query block: Which inhibition value belongs to Cc1cnc(C[S+]([O-])c2nc3cc(C(F)(F)F)ccc3[nH]2)cc1OCc1ccccc1 (stereo unspecified) ?
Result block: 4.95

Query block: Which inhibition value belongs to CN(C)c1cc(NC(=O)Nc2ccc(SC(F)(F)F)cc2)c2ccccc2n1 ?
Result block: 0.11

Query block: Which inhibition value belongs to CC[C@H](NC(=O)c1c(CC2CCN(CC(C)=O)CC2)c(-c2ccccc2)nc2ccccc12)c1ccccc1 ?
Result block: 3.28

Query block: Which inhibition value belongs to c1cc(CNCCc2ccncc2)cc(-c2ccc(-c3nc4ccccc4[nH]3)cc2)c1 ?
Result block: 2.38

Query block: Which inhibition value belongs to N#Cc1ccc2c(c1)CCN(CCC1CCC(NC(=O)Nc3ccncc3)CC1)C2 (stereo unspecified) ?
Result block: 3.65

Each molecule below has a recorded value; state its inhibition.
1. COc1ccc(C(=O)C2CCN(CCCCNC(=O)c3ccc(NC(=O)c4ccc(Cl)cc4)cc3)CC2)c(OC)c1
2. COc1ccccc1C1CC(c2ccccc2)=NN1C(=O)c1ccccc1 (stereo unspecified)
3. Cc1ccc(-n2c(=O)c3c(n4c(SC(C)C)nnc24)-c2ccccc2CC32CCCCC2)cc1
4. CCOc1ccc(-c2nonc2NC(=O)c2ccco2)cc1OCC
5. Cc1cc(NC(=O)CCCN2CCN(c3cccc(Cl)c3Cl)CC2)ccc1N1CCN(C(C)C)CC1

Result block:
1: 2.82; 2: -0.25; 3: 6.98; 4: -0.52; 5: 5.3

Each molecule below has a recorded value; state its inhibition.
1. O=C(c1ccc([N+](=O)[O-])o1)N1CCN(c2nc3c(F)cc(F)cc3s2)CC1
2. Cc1nc(N)nc(N)c1OCc1ccc(Cl)c(Cl)c1
3. O=C(NCCCN1CCOCC1)c1ccc(-c2cccc(NC(=O)c3ccc(Cl)c(Cl)c3)c2)cc1

Result block:
1: 6.03; 2: 1.73; 3: 1.79

Each molecule below has a recorded value; state its inhibition.
1. N=C(N)Nc1ccc(Cc2ccc(NC(=N)N)cc2)cc1
2. Cc1ccccc1N1CCN(c2ncc(C(=O)NC3CC3)cc2Cl)CC1

Result block:
1: -0.57; 2: 6.74

Each molecule below has a recorded value; state its inhibition.
1. O=C(Nc1ccc(Br)cc1)N1CCC(n2c(-c3ccccc3)nc3cccnc32)CC1
2. NCc1ccc(-c2ccccc2CNC2CCN(Cc3ccccc3)CC2)cc1
3. CC(C)C(C(=O)n1cc2c(ccc3nc(N)nc(N)c32)n1)C(C)C
4. CCCCc1ccc2ncc(C(=O)OCC)c(O)c2c1
5. O=C(Cc1cc(F)cc(F)c1)NC1CCN(c2ccnc3cc(Cl)ccc23)C1 (stereo unspecified)

Result block:
1: 1.56; 2: 2.46; 3: 11; 4: -0.73; 5: 1.66
